Test system: MS2 coat protein
ASSAY METHOD TEXT: apparent KD of MS2 coat protein; designed switch direction (-1 OFF switch, 1 ON switch): -1; higher = weaker reporter binding
TEST CONDITIONS: input ligand: FMN 200 uM
MEASUREMENT TYPE: apparent KD of MS2 coat protein (nM)
Return type: number; implicit unit nM.

Examples with their reported apparent KD of MS2 coat protein follow.
Measured apparent KD of MS2 coat protein, AGCUAGUCAGGAUAUACAAACAUGUCAAAAGACGUGAAGGGACAUGAGGAUCACCCAUGUAGAAGGGACUAGCA [Web Mod 74% 2] (Eterna round: R96, puzzle: Exclusion 2) : 304

For this sequence ( UGAGACUGAGGAUAUACUAGCCCAUAAAGUGGGUUGUGGGUACAUGAGGAUCACCCAUGUAGAAGGCAGCCUCG [Omei Repeat Sequence v4] (Eterna round: R97, puzzle: Exclusion 2) ), measured apparent KD of MS2 coat protein is 516

Continuing:
// AAAUAGAAAGGAUAUACAGGCAUCCUUACCAGAGCGAGCUCACAUGAGGAUCACCCAUGUAGAAGGUUCAUAGC [EX2 C.17] (Eterna round: R97, puzzle: Exclusion 2) : apparent KD of MS2 coat protein value = 34.9

---

apparent KD of K4 kissing-loop reporter for assorted sequences
Tested on: K4 kissing-loop RNA reporter;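 note: bound reporter read as fluorescence of individual clusters on recovered sequencing chips by microscopy, with normalized cluster intensities fitted with a binding model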
ASSAY METHOD TEXT: apparent KD of K4 kissing-loop reporter; higher = weaker reporter binding
TEST CONDITIONS: Eterna round: R107; input ligand: theophylline 20 uM
Quick note: give the figure in nM, leave out the unit.

Some entries whose results are on file:
Reported apparent KD of K4 kissing-loop reporter for CUCCGACUAUCGGCCGCCACUAUCGGAAAGUCCACGGACAUUCAAUGCAGUUAGUGAUGUUAACGUAGGACCGGGAUGAUUUGUA [theeternabot_sameState_KL_Trp_B_9] was 541

Given item AGGGAACGCACGGAUACCAGACUCAUAGUGAUGUUGUGGGUAUAAAUUAGCGCAUACACAGUCCCUUGGCAGCCGCUGAAUGGCC [theeternabot_exclusion_KL_Theo_B_1] , the value recorded as its apparent KD of K4 kissing-loop reporter is 835

apparent KD of K4 kissing-loop reporter reported for this sequence GGCGGCCGCGCGAAAGCGCGGCCGGCCGAUACCAGCGCGCCGGCGCGCCCUUGGCAGCGGCGCCGAGUGAUGUUCGGCCUGCCGU [#2 Same State - Theophylline A Attempt #12 (HarryS)] : 134

Next:
What the record says about `UCCUAGGCUCGAAAGAGCCUAGGUUAGACUCAGGAUAUCUGGAAACAGAGAAGGGAGCUACUAGUGAUGUUAGGAAUUCCCAUUU` : apparent KD of K4 kissing-loop reporter is 88.5

The recorded apparent KD of K4 kissing-loop reporter for entry AAUUAAUACAGAAGGAGCGUGAAAUUAUCUACUUUUAACUUAGCGAGUGAUGUUCGUUUUUCACAGGUAGGUCGCUGUAUAUUUA [JR_ExcArginiB_Sub009] equals 192

Form field apparent KD of K4 kissing-loop reporter, entry GCUAAGUGAUGUUUAUGCCGCCGACCGGAUACCAGCUACUAGGCAAGCCCUUGGCAGCCGCUAUGUGACCGAUCAUUAGUUAUGU [theeternabot_exclusion_KL_Theo_A_6] : 790

---

Test system: MS2 coat protein
ASSAY METHOD TEXT: apparent KD of MS2 coat protein; designed switch direction (-1 OFF switch, 1 ON switch): 1; higher = weaker reporter binding
TEST CONDITIONS: input ligand: none
# label = MET if apparent KD of MS2 coat protein >= 0.09 µM else NOT MET

Reference set (5 entries):
(Q) API: above_or_equal(metric=apparent KD of MS2 coat protein, cutoff=0.09 µM) for item AGGCUGAGUCGAGGAUAUUAUGGAUCCUCUAAUACAUGAGGAUCACCCAUGUAAUUAAUUAUACAUGAGAAGGCGACUCAGCCU [SSNG2/12-A4] (Eterna round: R96, puzzle: Same State NG 2)
(A) NOT MET

(Q) API: above_or_equal(metric=apparent KD of MS2 coat protein, cutoff=0.09 µM) for item UAAGUCAUGUAAGGAUAUGCAGCCGAAACGGCUGCAGAAGGUACUAUAAUUACAUGAGGAUCACCCAUGUUAUAAAAUUUAUAU [Mat - Same State NG 1 - JL mod - D77] (Eterna round: R96, puzzle: Same State NG 1)
(A) NOT MET

(Q) Tell me whether apparent KD of MS2 coat protein is at least 0.09 µM here: CGCCAGAGAGCAGGAUAUGGGCCACGGCCUAAGGGCUGUGAACUCACAUGAGGAUCACCCAUGUCCCAGAAGGGCUCCUGGCGG [Veatzain] (Eterna round: R96, puzzle: Same State NG 2)
(A) MET

(Q) Could you verify whether the entry GCCGCGUUUCGCGCCUACAUGAGGAUCACCCAUGUUUGUAGGCAGGAUAUCGUUUGCUUUGCGGGCGAGAAGGGCUGUUGUGGC [salish99_SSNG3_R04_017] (Eterna round: R96, puzzle: Same State NG 3) shows apparent KD of MS2 coat protein of no less than 0.09 µM?
(A) NOT MET

(Q) I'd appreciate it if you could say whether CGUCGUUUGCUAGGAUAUCGCUAUACAUGAGGAUCACCCAUGUUUACCACGCUGGUUUUUCAUACCGAGAAGGAGUCUGAUGUU [salish99_SSNG02_r04_020] (Eterna round: R96, puzzle: Same State NG 2) has apparent KD of MS2 coat protein at least equal to 0.09 µM.
(A) NOT MET

Others:
(Q) Hi team, for GUUACAUGAGGAUCACCCAUGUAUGUGUGGGAGUAAGUGUCUUAGGAUAUCUAGUAGUUAAUUUAAGAGAAGGAAGAUUGUUGU [JMF's solution 55] (Eterna round: R96, puzzle: Same State NG 3) , is the recorded apparent KD of MS2 coat protein at or above 0.09 µM?
(A) MET

(Q) Given the entry AUAGUUUCCGAAGGAUAUGAUGAGGAUCACCCAUCAGAAGGUUGGCUAUUGGGCUGACAUGAGGAUCACCCAUGUUCUGGUGUU (Eterna round: R96, puzzle: Same State NG 1) , answer whether its apparent KD of MS2 coat protein meets or surpasses 0.09 µM.
(A) NOT MET

(Q) Could you verify whether the entry UGUUGUAUUACAGGAUAUCUAUUGUUUUUACUUAGAGAAGGGUAUUCACAUGAGGAUCACCCAUGUAUAUACGAGGAAGUUGUG [JMF's solution 83] (Eterna round: R96, puzzle: Same State NG 1) shows apparent KD of MS2 coat protein of no less than 0.09 µM?
(A) NOT MET
